# Assay Details: AUC (0 to infinity) in Sprague-Dawley rat at 25 mg/kg, po measured up to 24 hrs by LC-MS analysis
# Format: ADME, organism-based
# Parameters: dose 25 mg/kg, time < 24 hrs, route po
# Particulars: in vivo
Readout Type: AUC(0-inf) (ng·h/mL)
Give bare numbers, in ng·h/mL.

Query block: If you can, please state the reported AUC(0-inf) value of O=C(Nc1ccc2[nH]ncc2c1)[C@]12ON=C(c3cccnc3)[C@H]1[C@@H]1CC[C@H]2C1 .
Result block: 54500

----------
# Assay Details: Tmax in Sprague-Dawley rat at 5 mg/kg, iv measured up to 24 hrs by LC-MS analysis
# Format: ADME, organism-based
# Particulars: in vivo
Readout Type: Tmax (h)
One number for each entry, in h.

Query block: I would be grateful if you could share the reported Tmax for O=C(Nc1ccc2[nH]ncc2c1)[C@]12ON=C(c3cccnc3)[C@H]1[C@@H]1CC[C@H]2C1 .
Result block: 0

----------
# System Tested: Cytochrome P450 1A2 (Homo sapiens, UniProt P05177)
# Sequence (P05177 whole entry): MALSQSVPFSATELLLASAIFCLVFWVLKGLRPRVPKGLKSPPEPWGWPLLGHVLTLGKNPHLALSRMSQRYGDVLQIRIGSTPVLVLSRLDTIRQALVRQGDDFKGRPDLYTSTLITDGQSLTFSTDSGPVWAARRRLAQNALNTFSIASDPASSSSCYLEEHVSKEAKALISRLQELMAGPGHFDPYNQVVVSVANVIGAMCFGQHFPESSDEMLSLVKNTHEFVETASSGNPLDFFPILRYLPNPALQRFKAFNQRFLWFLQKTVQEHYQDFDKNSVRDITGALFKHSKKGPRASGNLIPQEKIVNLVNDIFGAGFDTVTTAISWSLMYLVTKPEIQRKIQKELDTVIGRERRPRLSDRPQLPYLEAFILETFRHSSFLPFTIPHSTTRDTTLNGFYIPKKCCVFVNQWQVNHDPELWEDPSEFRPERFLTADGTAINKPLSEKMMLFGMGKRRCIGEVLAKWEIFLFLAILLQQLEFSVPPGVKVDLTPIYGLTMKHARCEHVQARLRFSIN
# Assay Details: Inhibition of human hepatic recombinant CYP1A2 using cocktail of substrate by LC-MS/MS analysis
pIC50: −log10 of the molar value.
Readout Type: pIC50

Query block: Form entry - test system: Cytochrome P450 1A2 (Homo sapiens, UniProt P05177); read-out: pIC50; compound: O=C(Nc1ccc2[nH]ncc2c1)[C@]12ON=C(c3cccnc3)[C@H]1[C@@H]1CC[C@H]2C1
Result block: < 5.00

----------
# System Tested: Cytochrome P450 11B1, mitochondrial (Homo sapiens, UniProt P15538)
# Sequence (P15538 whole entry): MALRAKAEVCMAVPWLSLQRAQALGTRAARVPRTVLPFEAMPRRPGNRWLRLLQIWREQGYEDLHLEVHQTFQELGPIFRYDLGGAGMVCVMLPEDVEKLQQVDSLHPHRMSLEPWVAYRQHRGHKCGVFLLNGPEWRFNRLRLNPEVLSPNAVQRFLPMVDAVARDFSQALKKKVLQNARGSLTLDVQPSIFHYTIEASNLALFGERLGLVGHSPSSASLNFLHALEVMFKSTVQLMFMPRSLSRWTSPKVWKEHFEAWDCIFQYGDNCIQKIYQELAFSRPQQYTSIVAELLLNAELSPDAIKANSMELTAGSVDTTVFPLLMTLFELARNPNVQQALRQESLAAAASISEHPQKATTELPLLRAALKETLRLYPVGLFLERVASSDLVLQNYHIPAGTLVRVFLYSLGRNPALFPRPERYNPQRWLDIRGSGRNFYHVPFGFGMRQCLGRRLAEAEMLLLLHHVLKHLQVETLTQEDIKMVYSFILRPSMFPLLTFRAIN
# Assay Details: Inhibition of human CYP11B1 expressed in Chinese hamster V79 MZh cells using [14C]-deoxycorticosteron as substrate measured after 6 hrs by phosphoimager analysis
Answer each item with its documented pIC50.
One number for each entry, as −log10 of the molar value.

As a guide, the following entries are already answered.
>>> endpoint_result("O=C(Nc1ccc2[nH]ncc2c1)[C@]12ON=C(c3cccnc3)[C@H]1[C@@H]1CC[C@H]2C1")
8.05
>>> endpoint_result("O=C(Nc1cccc([N+](=O)[O-])c1)[C@]12ON=C(c3cccnc3)C1[C@@H]1CCC2C1 (single isomer, unassigned)")
7.19
>>> endpoint_result("COc1cccc(NC(=O)[C@]23ON=C(c4cccnc4)[C@H]2[C@@H]2CC[C@H]3C2)c1")
7.49
>>> endpoint_result("N#Cc1cccc(NC(=O)[C@]23ON=C(c4cccnc4)[C@H]2[C@@H]2CC[C@H]3C2)c1")
7.46
>>> endpoint_result("O=C(Nc1ccc2[nH]ncc2c1)[C@]12ON=C(c3cncc(Br)c3)[C@H]1[C@@H]1CC[C@H]2C1")
7.51

Please report pIC50 for every entry that follows.
1. Cc1ccccc1NC(=O)[C@]12ON=C(c3cccnc3)[C@H]1[C@@H]1CC[C@H]2C1
2. O=C(Nc1ccc2[nH]ccc2c1)[C@]12ON=C(c3cccnc3)[C@H]1[C@@H]1CC[C@H]2C1
3. O=C(Nc1ccc2[nH]ncc2c1)[C@]12ON=C(c3cncc(-c4cccc(C(F)(F)F)c4)c3)[C@H]1[C@@H]1CC[C@H]2C1
4. O=C(Nc1cccc(F)n1)[C@]12ON=C(c3cccnc3)[C@H]1[C@@H]1CC[C@H]2C1

Result block:
1. 6.72
2. 7.66
3. 7.77
4. 7.07
